- TARGET: Hexose transporter 1 (Plasmodium falciparum)
- ASSAY_OVERVIEW: ST_JUDE_LEISH: Cytotoxicity at 2uM final concentration against transgenic Leishmania Mexicana promastigotes LmPfHT that are glucose transport deficient and complemented with the Plasmodium falciparum hexose transporter. Activity is measured by DNA content using SYBR green in vitro
- Format: functional
READOUT_TYPE: inhibition (%)
Answer in %, number only, no unit symbol.

> print(dat)
                                   compound  reported.result
1  CC(=O)C1=NN(c2ccc(C)cc2)C(c2cccs2)N1c1ccccc1 (configuration not stated)             2.74
2  CN(C)CCCOc1c(C(C)(C)C)cc(-c2cc(C(C)(C)C)c(OCCCN(C)C)c(C(C)(C)C)c2)cc1C(C)(C)C             4.77
3  O=C(Nc1cccc(-c2cccc(-c3nc4ccccc4[nH]3)c2)c1)Nc1ccc2c(c1)OCO2             4.48
4  COc1ccc(CNC2Cc3ccccc3C2)cc1-c1ccc(OC)c(S(=O)(=O)NCCN2CCCC2)c1             1.67
5  Cc1ccc(Cn2ncc(N3CCNCC3)c(Cl)c2=O)cc1NC(=O)Nc1ccc(-c2ccccc2)cc1             2.78

Look up and report measured inhibition for this entry: Cc1cc2nc(N/C(N)=N/C(=O)NC3CCCCC3)nc(C)c2cc1C 3.48

Look up and report measured inhibition for this entry: Oc1ccc(-c2nc(-c3ccc4oc5ccc(-c6[nH]c(-c7ccc(O)cc7)nc6-c6ccccc6)cc5c4c3)c(-c3ccccc3)[nH]2)cc1 -1.28

Look up and report measured inhibition for this entry: Cc1nnc(N2C(=N)SC(=Cc3ccc(-c4ccc(OC(F)(F)F)cc4)o3)C2=O)s1 2.59

Look up and report measured inhibition for this entry: CC(C)(C)c1ccccc1OCCCON1C(=N)N=C(N)NC1(C)C 59.3

Look up and report measured inhibition for this entry: Cc1cccc(CCCNC(=O)CN(c2cccc(C(F)(F)F)c2)S(=O)(=O)c2ccc(C(F)(F)F)cc2)c1 4.48

Look up and report measured inhibition for this entry: COc1nc(-n2ccc(=N)cc2)nc2ccccc12 13.4

Look up and report measured inhibition for this entry: COc1ccc(Nc2ncc(OC)c(Nc3ccccc3C(N)=O)n2)cc1N1CCN(C)CC1 21.9

Look up and report measured inhibition for this entry: CCOC(=O)N1CCN(CCCNc2c3ccc(Cl)cc3nc3ccc(OC)cc23)CC1 3.33

Look up and report measured inhibition for this entry: Oc1ccccc1CCNCC1CCc2ccccc2C1 (configuration not stated) -0.01

Look up and report measured inhibition for this entry: COc1cc(Nc2ccnc3ccc(C(F)(F)F)cc23)cc(OC)c1OC 23.1

Look up and report measured inhibition for this entry: OC(CNc1ccnc(Nc2cccc(Cl)c2)n1)c1ccc(C(F)(F)F)cc1 (configuration not stated) 7.14

Look up and report measured inhibition for this entry: FC(F)(F)c1ccc2c(NCCCNc3ccnc4cc(C(F)(F)F)ccc34)ccnc2c1 3.22
